Tested on: Escherichia coli TOP10
ASSAY COMMENT: shrunken log2 fold change of peptide-encoding DNA abundance (4.5 h post-induction vs induction); higher = less antimicrobial activity (less host growth inhibition)
MEASUREMENT CONDITIONS: time post-induction: 4.5 h; library: site-saturation at positions 5, 18, 19, 20
Form field: shrunken log2 fold change (one value per entry).
OUTCOME MEASURE: shrunken log2 fold change

SEQUENCE CODE	REPORTED
RRIRQRPPRLPRPRPRPSMEPRP	0.0775
RRIRHRPPRLPRPRPRPDSGPRP	-0.0385
RRIRYRPPRLPRPRPRPIGPPRP	-0.00962
RRIRKRPPRLPRPRPRPNWPPRP	0.19
RRIRFRPPRLPRPRPRPFQRPRP	0.0192
RRIRFRPPRLPRPRPRPGRCPRP	0.259
RRIRYRPPRLPRPRPRPISSPRP	-0.262
RRIRRRPPRLPRPRPRPKYNPRP	-0.384
RRIRGRPPRLPRPRPRPPNKPRP	0.528
RRIRRRPPRLPRPRPRPCQDPRP	-0.275
RRIRQRPPRLPRPRPRPVSSPRP	-0.255
RRIRTRPPRLPRPRPRPITIPRP	-0.151
RRIRERPPRLPRPRPRPTWHPRP	0.358
RRIRERPPRLPRPRPRPFICPRP	-0.36
RRIRQRPPRLPRPRPRPHPKPRP	-0.0646

----------
System: Escherichia coli TOP10
ASSAY COMMENT: shrunken log2 fold change of peptide-encoding DNA abundance (4.5 h post-induction vs induction); higher = less antimicrobial activity (less host growth inhibition)
MEASUREMENT CONDITIONS: time post-induction: 4.5 h; library: site-saturation at positions 5, 18, 19, 20
Tick Fulfilled if shrunken log2 fold change is 0.02 or greater. Tick Not fulfilled if shrunken log2 fold change is less than 0.02.

SEQUENCE CODE	ASSIGNED CLASS
RRIRCRPPRLPRPRPRPLCTPRP	Not fulfilled
RRIRIRPPRLPRPRPRPYYKPRP	Not fulfilled
RRIRKRPPRLPRPRPRPIITPRP	Fulfilled
RRIRCRPPRLPRPRPRPNHAPRP	Not fulfilled
RRIRWRPPRLPRPRPRPFHCPRP	Not fulfilled
RRIRLRPPRLPRPRPRPRENPRP	Fulfilled
RRIRARPPRLPRPRPRPKLIPRP	Fulfilled
RRIRNRPPRLPRPRPRPCRSPRP	Not fulfilled
RRIRARPPRLPRPRPRPSTLPRP	Fulfilled
RRIRTRPPRLPRPRPRPHWNPRP	Not fulfilled
RRIRKRPPRLPRPRPRPFGGPRP	Not fulfilled
RRIRARPPRLPRPRPRPECAPRP	Fulfilled
RRIRMRPPRLPRPRPRPRMWPRP	Fulfilled
RRIRIRPPRLPRPRPRPYCQPRP	Not fulfilled
RRIRGRPPRLPRPRPRPCPGPRP	Not fulfilled
RRIRLRPPRLPRPRPRPCEEPRP	Not fulfilled
RRIRARPPRLPRPRPRPKAWPRP	Fulfilled
RRIRIRPPRLPRPRPRPPVKPRP	Not fulfilled
RRIRTRPPRLPRPRPRPRQMPRP	Fulfilled
RRIRIRPPRLPRPRPRPEPAPRP	Fulfilled
RRIRMRPPRLPRPRPRPMDVPRP	Not fulfilled
RRIRCRPPRLPRPRPRPFPMPRP	Not fulfilled
RRIRYRPPRLPRPRPRPARHPRP	Fulfilled
RRIRSRPPRLPRPRPRPGIFPRP	Fulfilled
RRIRARPPRLPRPRPRPFCIPRP	Not fulfilled
RRIRLRPPRLPRPRPRPFRRPRP	Not fulfilled
RRIRLRPPRLPRPRPRPADTPRP	Not fulfilled
RRIRPRPPRLPRPRPRPNKEPRP	Not fulfilled
RRIRVRPPRLPRPRPRPESPPRP	Fulfilled
RRIRVRPPRLPRPRPRPRWGPRP	Fulfilled
RRIRPRPPRLPRPRPRPHGSPRP	Fulfilled
RRIRGRPPRLPRPRPRPVQKPRP	Fulfilled

----------
Tested on: Escherichia coli TOP10
ASSAY COMMENT: shrunken log2 fold change of peptide-encoding DNA abundance (4.5 h post-induction vs induction); higher = less antimicrobial activity (less host growth inhibition)
MEASUREMENT CONDITIONS: time post-induction: 4.5 h; library: site-saturation at positions 5, 18, 19, 20
Form field: shrunken log2 fold change (one value per entry).

SEQUENCE CODE	shrunken log2 fold change
RRIRPRPPRLPRPRPRPHIWPRP	-0.3
RRIRSRPPRLPRPRPRPFRPPRP	-0.249
RRIRGRPPRLPRPRPRPYLCPRP	0.0395
RRIRERPPRLPRPRPRPVEKPRP	-0.0163
RRIRSRPPRLPRPRPRPNFYPRP	-0.252
RRIRPRPPRLPRPRPRPLCMPRP	-0.444
RRIRARPPRLPRPRPRPTWAPRP	0.621
RRIRARPPRLPRPRPRPENDPRP	0.085
RRIRERPPRLPRPRPRPGTNPRP	-0.361
RRIRWRPPRLPRPRPRPHDKPRP	0.0422
RRIRLRPPRLPRPRPRPECQPRP	-0.00577
RRIRMRPPRLPRPRPRPWTWPRP	-0.0795
RRIRCRPPRLPRPRPRPCRRPRP	0.0819
RRIRHRPPRLPRPRPRPSVHPRP	-0.204
RRIRDRPPRLPRPRPRPIRGPRP	-0.0417
RRIRMRPPRLPRPRPRPDVPPRP	0.323
RRIRSRPPRLPRPRPRPDDLPRP	0.0166
RRIRYRPPRLPRPRPRPTHKPRP	-0.329
RRIRDRPPRLPRPRPRPWFPPRP	-0.234
RRIRLRPPRLPRPRPRPHTVPRP	-0.267
RRIRSRPPRLPRPRPRPTMSPRP	-0.0133
RRIRDRPPRLPRPRPRPVLDPRP	-0.0729
RRIRQRPPRLPRPRPRPLAAPRP	0.395
RRIRPRPPRLPRPRPRPKRNPRP	0.142
RRIRCRPPRLPRPRPRPMPWPRP	0.0515
RRIRNRPPRLPRPRPRPSQFPRP	-0.16
RRIRFRPPRLPRPRPRPYMEPRP	-0.0116
RRIRNRPPRLPRPRPRPWPWPRP	0.0162
RRIRMRPPRLPRPRPRPTWCPRP	-0.0681
RRIRMRPPRLPRPRPRPCTQPRP	-0.111
RRIRMRPPRLPRPRPRPYHIPRP	-0.69
RRIRERPPRLPRPRPRPIWDPRP	-0.254

----------
Tested on: Escherichia coli TOP10
ASSAY COMMENT: shrunken log2 fold change of peptide-encoding DNA abundance (4.5 h post-induction vs induction); higher = less antimicrobial activity (less host growth inhibition)
MEASUREMENT CONDITIONS: time post-induction: 4.5 h; library: site-saturation at positions 5, 18, 19, 20
Tick criterion met if shrunken log2 fold change is 0.1 or greater. Tick criterion not met if shrunken log2 fold change is less than 0.1.

SEQUENCE CODE	MEASUREMENT TARGET	ASSIGNED CLASS
RRIRGRPPRLPRPRPRPHDCPRP	Escherichia coli TOP10	criterion not met
RRIRVRPPRLPRPRPRPWWQPRP	Escherichia coli TOP10	criterion not met
RRIRGRPPRLPRPRPRPEGWPRP	Escherichia coli TOP10	criterion met
RRIRGRPPRLPRPRPRPDNTPRP	Escherichia coli TOP10	criterion met
RRIRARPPRLPRPRPRPQVFPRP	Escherichia coli TOP10	criterion met
RRIRQRPPRLPRPRPRPIGIPRP	Escherichia coli TOP10	criterion not met
RRIRQRPPRLPRPRPRPLVQPRP	Escherichia coli TOP10	criterion not met
RRIRMRPPRLPRPRPRPTELPRP	Escherichia coli TOP10	criterion met
RRIRSRPPRLPRPRPRPAIEPRP	Escherichia coli TOP10	criterion not met
RRIRVRPPRLPRPRPRPQGPPRP	Escherichia coli TOP10	criterion met
RRIRSRPPRLPRPRPRPIDCPRP	Escherichia coli TOP10	criterion not met
RRIRIRPPRLPRPRPRPSLCPRP	Escherichia coli TOP10	criterion not met
RRIRERPPRLPRPRPRPPHAPRP	Escherichia coli TOP10	criterion met
RRIRLRPPRLPRPRPRPAKSPRP	Escherichia coli TOP10	criterion not met
RRIRMRPPRLPRPRPRPSDTPRP	Escherichia coli TOP10	criterion met

----------
Form field: shrunken log2 fold change (one value per entry).
Tested on: Escherichia coli TOP10;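 note: peptides expressed intracellularly from a pBAD plasmid library in pooled LB shake-flask culture, induced with 0.3% L-arabinose, DNA abundance read by NGS, three biological replicates, DESeq2 with apeglm shrinkage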
ASSAY COMMENT: shrunken log2 fold change of peptide-encoding DNA abundance (4.5 h post-induction vs induction); higher = less antimicrobial activity (less host growth inhibition)
MEASUREMENT CONDITIONS: time post-induction: 4.5 h; library: site-saturation at positions 5, 18, 19, 20

SEQUENCE CODE	MEASUREMENT TARGET	shrunken log2 fold change
RRIRLRPPRLPRPRPRPIDWPRP	Escherichia coli TOP10	-0.00448
RRIRCRPPRLPRPRPRPNSVPRP	Escherichia coli TOP10	-0.143
RRIRSRPPRLPRPRPRPCWHPRP	Escherichia coli TOP10	-0.245
RRIRMRPPRLPRPRPRPVRGPRP	Escherichia coli TOP10	1.18
RRIRERPPRLPRPRPRPHALPRP	Escherichia coli TOP10	-0.236
RRIRYRPPRLPRPRPRPYFDPRP	Escherichia coli TOP10	-0.27
RRIRCRPPRLPRPRPRPLQWPRP	Escherichia coli TOP10	-0.0609
RRIRQRPPRLPRPRPRPHELPRP	Escherichia coli TOP10	-0.00752
